# Tested on: Propionibacterium acnes (ATCC 6919)
# protocol-description: ΣFIC assay against P. acnes
# Type: cell-based
# experimental-conditions: AML concentration, in combination with honokiol
quantity-name: The range of concentration of the ingredient (ppm) where the ΣFIC was less than 0.9: AML

The range of concentration of the ingredient (ppm) where the ΣFIC was less than 0.9: AML reported for this molecule CCCCCC/C=C\CCCCCCCC(=O)O : 1.95 to 7.81 ppm

Entry CCCCCCCCCCCCCC[C@@H](O)[C@@H](O)[C@@H](N)CO ; The range of concentration of the ingredient (ppm) where the ΣFIC was less than 0.9: AML = 1.25 to 5.00 ppm

// sample CCCCCCCCCCCCC/C=C/[C@@H](O)[C@@H](N)CO , its The range of concentration of the ingredient (ppm) where the ΣFIC was less than 0.9: AML was 0.31 to 1.25 ppm

Reported The range of concentration of the ingredient (ppm) where the ΣFIC was less than 0.9: AML ( CCCCCCCCCCCCCCC[C@@H](O)[C@@H](N)CO [dihydrosphingosine, D-erythro-Dihydrosphingosine] ) = 0.63 to 2.50 ppm

Reported The range of concentration of the ingredient (ppm) where the ΣFIC was less than 0.9: AML for CCCCCCCCC/C=C\CCCCC(=O)O was 1.95 to 3.91 ppm

* * *

# Tested on: M. furfur (CBS1878)
# protocol-description: ΣFIC assay against M. furfur
# Type: cell-based
# experimental-conditions: magnolol + AML
Could you please report measured The range of ratio of magnolol/AML (w/w) where ΣFIC was less than 0.9 for the items listed next?

response.value for CCCCCCCCCCCCCCC[C@@H](O)[C@@H](N)CO [dihydrosphingosine, D-erythro-Dihydrosphingosine] (field: The range of ratio of magnolol/AML (w/w) where ΣFIC was less than 0.9) = 5 to 80 w/w

Reported The range of ratio of magnolol/AML (w/w) where ΣFIC was less than 0.9 for CCCCCCCCCCCCCC[C@@H](O)[C@@H](O)[C@@H](N)CO was 10 to 320 w/w

Input CCCCCCCCCCCCC/C=C/[C@@H](O)[C@@H](N)CO . Output The range of ratio of magnolol/AML (w/w) where ΣFIC was less than 0.9: 5 to 40 w/w

The range of ratio of magnolol/AML (w/w) where ΣFIC was less than 0.9 reported for this molecule CCCCCC/C=C\CCCCCCCC(=O)O : 0.03 to 2 w/w

// recorded The range of ratio of magnolol/AML (w/w) where ΣFIC was less than 0.9 for CCCCCCCCC/C=C\CCCCC(=O)O : 0.06 to 2 w/w

* * *

# System: S. aureus (ATCC 12600)
# protocol-description: ΣFIC assay against S. aureus
# Assay type: cell-based
# experimental-conditions: honokiol + AML
quantity-name: The range of ratio of honokiol/AML (w/w) where ΣFIC was less than 0.9

Measured The range of ratio of honokiol/AML (w/w) where ΣFIC was less than 0.9 of CCCCCCCCCCCCCC[C@@H](O)[C@@H](O)[C@@H](N)CO : 0.4 to 12.5 w/w

// sample CCCCCCCCC/C=C\CCCCC(=O)O , its The range of ratio of honokiol/AML (w/w) where ΣFIC was less than 0.9 was 0.008 to 2 w/w

Item: CCCCCC/C=C\CCCCCCCC(=O)O | The range of ratio of honokiol/AML (w/w) where ΣFIC was less than 0.9: 0.008 to 2 w/w

Documented The range of ratio of honokiol/AML (w/w) where ΣFIC was less than 0.9 of CCCCCCCCCCCCC/C=C/[C@@H](O)[C@@H](N)CO : 0.8 to 25 w/w

For reference, reported The range of ratio of honokiol/AML (w/w) where ΣFIC was less than 0.9 for CCCCCCCCCCCCCCC[C@@H](O)[C@@H](N)CO [dihydrosphingosine, D-erythro-Dihydrosphingosine] stands at 0.8 to 12.5 w/w
